I'd be grateful if you could share measured ASMS ratio (%) for these entries.
# tested.on: Bcl-2 protein (Recombinant Human Bcl-2 Protein) (Homo sapiens, UniProt P10415)
# Construct: purchased Novus NBP2-34889
# Sequence (P10415 whole entry): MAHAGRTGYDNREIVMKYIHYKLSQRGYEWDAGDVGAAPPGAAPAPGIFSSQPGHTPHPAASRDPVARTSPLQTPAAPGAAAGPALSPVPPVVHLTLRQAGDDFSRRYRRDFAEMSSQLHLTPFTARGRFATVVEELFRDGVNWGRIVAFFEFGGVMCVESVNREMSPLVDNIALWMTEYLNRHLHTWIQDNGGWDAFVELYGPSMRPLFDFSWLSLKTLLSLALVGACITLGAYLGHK
# protocol.text: Binding evaluation of mixture library compounds to Bcl-2 using AS-MS (affinity selection mass spectrometry)
# condition.summary: n = 2
Numbers only, in %.

Reference set (4 entries):
[
  {
    "compound": "CCOc1cccc(-c2cc(CN3CCN(c4ccc(C(=O)NS(C)(=O)=O)nn4)CC3)cc(OC(F)(F)F)c2)c1",
    "quantity.unit": "%",
    "ASMS ratio (%)": 0.0
  },
  {
    "compound": "CCOc1cccc(-c2cc(CN3CCN(c4ccc(C(=O)NS(=O)(=O)CCC(F)(F)F)cc4)CC3)cc(OC(C)C)c2)c1",
    "quantity.unit": "%",
    "ASMS ratio (%)": "−1.8"
  },
  {
    "compound": "CCOc1cccc(-c2ccccc2CN2CCN(c3ccc(C(=O)NS(=O)(=O)C(C)(C)C)nn3)CC2)c1",
    "quantity.unit": "%",
    "ASMS ratio (%)": 0.0
  },
  {
    "compound": "CCOc1cccc(-c2cc(C(=O)N3CCN(c4ccc(C(=O)NS(=O)(=O)CCC(F)(F)F)cc4)CC3)cc(C(C)(C)C)c2)c1",
    "quantity.unit": "%",
    "ASMS ratio (%)": 0.0
  }
]

Hello, I would appreciate it if you could give ASMS ratio (%) for each entry below.
1. CCOc1cccc(C#Cc2ccccc2CN2CCN(c3ccc(C(=O)NS(=O)(=O)CCC(F)(F)F)cc3)CC2)c1
2. CCOc1cncc(-c2cc(CN3CCN(c4ccc(C(=O)NS(=O)(=O)c5ccc(NCCSc6ccccc6)c(C(F)(F)F)c5)nn4)CC3)cc(C(F)(F)F)c2)c1
3. CCOc1cccc(-c2ccc(C(=O)N3CCN(c4ccc(C(=O)NS(=O)(=O)C(C)(C)C)nn4)CC3)cc2F)c1
4. CCOc1cncc(C#Cc2ccccc2C(=O)N2CCN(c3ccc(C(=O)NS(=O)(=O)CCC(F)(F)F)cc3)CC2)c1

1. −1.5
2. 13.1
3. 0.0
4. 0.0

I would be grateful if you could provide ASMS ratio (%) for each of the following entries.
1. CCOc1cccc(C#Cc2ccccc2CN2CCN(c3ccc(C(=O)NS(=O)(=O)c4ccc(NCCSc5ccccc5)c(C(F)(F)F)c4)cc3)CC2)c1
2. CCOc1cccc(-c2cc(CN3CCN(c4ccc(C(=O)NS(=O)(=O)c5ccc(NCCSc6ccccc6)c(C(F)(F)F)c5)nn4)CC3)cc(C(F)(F)F)c2)c1
3. CCOc1cncc(-c2ccc(C(C)N3CCN(c4ccc(C(=O)NS(C)(=O)=O)cc4)CC3)cc2)c1 (stereo not shown)
4. CCOc1cncc(-c2csc(C(=O)N3CCN(c4ccc(C(=O)NS(=O)(=O)c5ccc(NCCSc6ccccc6)c(C(F)(F)F)c5)nn4)CC3)c2)c1
5. CCOc1cccc(-c2cc(CN3CCN(c4ccc(C(=O)NS(=O)(=O)C(C)(C)C)cc4)CC3)cc(OCC)c2)c1

[18.5, 7.1, 0.0, 0.0, 0.0]
